inhibition for assorted compounds
# tested-on: L-lactate dehydrogenase (Plasmodium falciparum (isolate CDC / Honduras))
# assay-overview: PfLDH activity inhibition – cell lysate, 3D7 strain, counter-screen for P. falciparum growth inhibition project (AID 2304);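 note: 0% = vehicle and 100% = reference inhibitor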
# test-settings: P. falciparum 3D7 crude extract, LDH APAD/NBT absorbance; at 2 µM; stronger effect = higher value

compound: CN1CCN(CCCN(Cc2ccc(-c3ccc(CNCc4ccc5c(c4)OCO5)cc3)cc2)C(=O)CCC2CCCC2)CC1
unit-info: %
inhibition: 8
//
compound: Cc1[nH]c(C)c(-c2ccc(-c3cc(C(F)(F)F)cc(C(F)(F)F)c3)nc2)c(=O)c1Br
unit-info: %
inhibition: 0
//
compound: CS(=O)(=O)c1ccc(-c2cnc(N)c(-c3cccc(CO)c3)c2)cc1
unit-info: %
inhibition: 0
//
compound: CC(CON1C(N)=NC(N)=NC1(C)C)Cc1ccc(Cl)cc1Cl (stereo not given)
unit-info: %
inhibition: 2
//
compound: Oc1c(C(Nc2ccccn2)c2ccc(Cl)cc2Cl)ccc2cccnc12 (stereo not given)
unit-info: %
inhibition: 1
//
compound: O=C(NC1CCCCN(Cc2ccccc2O)C1)c1cccc(C(F)(F)F)c1 (stereo not given)
unit-info: %
inhibition: -6
//
compound: CCCCCC(C)c1cc(O)c2c(c1)OC(C)(C)C=C2C1=CCN(Cc2ccccc2)CC1 (stereo not given)
unit-info: %
inhibition: -5
//
compound: CCN(CCCN1CCCCC1)c1cc(C)nc(Nc2ccc(C)cc2Br)n1
unit-info: %
inhibition: 3
//
compound: N#Cc1cccc(C(=O)NC2CCN(CCCCCNC(=O)/C=C/c3ccc(Cl)c(Cl)c3)CC2)c1
unit-info: %
inhibition: -9
//
compound: COc1c(F)ccc2ncc(Cl)c(CCN3CCC(NCc4ccc5c(n4)NC(=O)CS5)CC3)c12
unit-info: %
inhibition: 2

====

Recorded growth inhibition values for a group of compounds are listed next.
# assay-overview: inhibition of 3D7 malaria parasite growth – strain 3D7 (AID 2306);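 note: 0% = DMSO wells and 100% = chloroquine plus artemisinin control wells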
# test-settings: P. falciparum 3D7 erythrocytic growth, LDH absorbance, 72 h; at 2 µM; stronger effect = higher value
Calls of active or inactive are those of the source. How the calls were made is not given here.

smiles-repr: c1cc(-c2ccc(CNCCCN3CCOCC3)cc2)cc(-c2nc3ccccc3[nH]2)c1
growth inhibition: 100% (active)
--
smiles-repr: O=C(/C=C/c1ccc(Cl)c(Cl)c1)N1CCN(C(=O)Nc2ccc(F)c(Cl)c2)CC1
growth inhibition: 97% (active)
--
smiles-repr: COCCN1CCC(CN(C)CC(C)(C)c2nc(-c3ccc(Cl)c(O)c3)c(-c3ccncc3)[nH]2)CC1
growth inhibition: 94% (active)
--
smiles-repr: O=S(=O)(c1ccc(Oc2ccccc2)cc1)N(CCC(O)(C(F)(F)F)C(F)(F)F)Cc1cccc(O)c1
growth inhibition: 102% (active)
--
smiles-repr: Cc1cc(I)ccc1Nc1nc2nonc2nc1Nc1ccc(I)cc1C
growth inhibition: 100% (active)
--
smiles-repr: COc1ccc(NC(=O)Nc2ccc(C)c(-c3ccc(C(=O)NCCN4CCCC4)cc3)c2)cc1
growth inhibition: 95% (active)
--
smiles-repr: Cc1ccc(OCC2CCN(c3ncc(C(=O)NCCCN4CCCC4=O)cc3Cl)CC2)cc1
growth inhibition: 94% (active)
--
smiles-repr: CCOc1ccc(C2CCN(CCCCNC(=O)c3ccc(NC(=O)c4ccc(Cl)cc4)cc3)CC2)c(OCC)c1
growth inhibition: 101% (active)
--
smiles-repr: N#Cc1ccc(-c2ccc(C(=O)NCCCCN3CCC(n4cnc5ccccc54)CC3)cc2)cc1
growth inhibition: 94% (active)

====

# tested-on: L-lactate dehydrogenase (Plasmodium falciparum (isolate CDC / Honduras))
# assay-overview: PfLDH activity inhibition – cell lysate, 3D7 strain, counter-screen for P. falciparum growth inhibition project (AID 2304);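 note: 0% = vehicle and 100% = reference inhibitor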
# test-settings: P. falciparum 3D7 crude extract, LDH APAD/NBT absorbance; at 2 µM; stronger effect = higher value
readout-label: inhibition (%)

compound: O=C(N[C@H]1CCN(Cc2ccc(OCCN3CCNCC3)c(Br)c2)C1)c1ccc(Cl)c(Cl)c1
result: 5
//
compound: CC(CCCCCC(=O)Nc1ccc(CC(C)NCCc2cccc(Cl)c2)cc1)NCCc1cccc(Cl)c1 (stereo not given)
result: 1
//
compound: S=C(NN=Cc1ccccn1)Nc1ccc2c(c1)OCCO2
result: 6
//
compound: Cc1noc(C)c1-c1cccc(CNCc2ccc(-c3ccc(-c4nc5ccc(F)cc5[nH]4)s3)cc2)c1
result: 6
//
compound: COc1ccc(C2CC(c3cccs3)=NN2C(=O)CNc2ccccc2F)cc1OC (stereo not given)
result: 2

====

# assay-overview: antimalarial activity against Dd2 strain (AID 2302);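 note: 0% = DMSO untreated growth and 100% = chloroquine plus artemisinin killed control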
# test-settings: P. falciparum Dd2 in RBCs, LDH growth readout, 72 h; at 2 µM; stronger effect = higher value
This listing pairs compounds with measured growth inhibition.
readout-label: growth inhibition (%)

smiles-repr: COc1ccc2nccc([C@@H](O)CN3CCC(NC(=O)/C=C/c4cccc(C)c4)CC3)c2c1
result: 28

smiles-repr: CN1CCC(N2CCN(Cc3ccc(-c4ccc(-c5nc6ccc(F)cc6[nH]5)s4)cc3)CC2)CC1
result: 100

smiles-repr: COc1ccc(-c2ccc(NC(=O)c3cccc(Cl)c3)cc2)cc1CN1CCN(C)CC1
result: 33

smiles-repr: CC(C)(C)NS(=O)(=O)c1cc(C(=O)N2CCC(CCN3CCC(O)(c4cccc(C(F)(F)F)c4)CC3)(c3cccc(F)c3)CC2)c(Cl)cc1F
result: 55

====

# assay-overview: antimalarial activity against Dd2 strain (AID 2302);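 note: 0% = DMSO untreated growth and 100% = chloroquine plus artemisinin killed control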
# test-settings: P. falciparum Dd2 in RBCs, LDH growth readout, 72 h; at 2 µM; stronger effect = higher value
readout-label: growth inhibition (%)

compound: CC1(C)N=C(NC(=O)Nc2ccc([N+](=O)[O-])cc2)N=C(N)N1OCc1cccc2ccccc12
unit-info: %
result: 21
--
compound: CC(=O)Nc1cccc(CN(Cc2ccc(-c3ccc(CNCc4cccnc4)cn3)cc2)C(=O)Cc2cccnc2)c1
unit-info: %
result: 65
--
compound: CCCCCCCCCCNCC(O)c1ccc(O)c(C(=O)OC)c1 (centres undefined)
unit-info: %
result: 97
--
compound: CC(C)(C)N1CCC(N(Cc2ccc(-c3ccc(C(F)(F)F)cc3)cc2)C(=O)Cn2c(CCc3cccc(F)c3F)nc(=O)c3cccnc32)CC1
unit-info: %
result: 53
--
compound: Cc1cc(N[C@@H](Cc2ccccc2)C(=O)Nc2ccccc2)nc(NCCc2cccs2)n1
unit-info: %
result: 72
--
compound: Cc1cc(C)n(Cc2ccc(C(=O)NCC3CCCCC3)cc2)n1
unit-info: %
result: 1
--
compound: CCNc1cc(C(=O)N[C@@H](Cc2ccccc2)[C@H](O)CNC2(CCC(C)C)CC2)cc(N2CCCCS2(=O)=O)c1
unit-info: %
result: 52
--
compound: Cc1cccc2[nH]c(-c3ccc(-c4ccc(NC(=O)Nc5ccsc5)cc4)s3)nc12
unit-info: %
result: 88
--
compound: Cc1cc(NC(=O)Nc2ccc(C(C)(C)C)cc2)c2ccccc2n1
unit-info: %
result: 57
--
compound: O=C(NCCCCN1CCC(C(c2ccccc2)c2ccccc2)CC1)c1ccc(NC(=O)c2ccc(Cl)cc2)cc1
unit-info: %
result: 47
--
compound: OC(CNc1ccnc(Nc2cccc(Cl)c2)n1)c1ccccc1C(F)(F)F (centres undefined)
unit-info: %
result: 36
--
compound: CC(=O)Nc1ccc(-c2nc3ccc(-c4nc5ccc(NC(C)=O)cc5[nH]4)cc3[nH]2)cc1
unit-info: %
result: 99
--
compound: O=C(Nc1nc2cc(S(=O)(=O)NCc3ccc(Cl)c(Cl)c3)ccc2n1CCCn1ccnc1)c1ccc(Cl)cc1
unit-info: %
result: 44
--
compound: N#Cc1ccc(/C=C/C(=O)NCCCCCN2CCN(C(=O)Nc3ccc(Cl)c(C(F)(F)F)c3)CC2)cc1
unit-info: %
result: -7
--
compound: CCNc1cc(C(=O)N[C@@H](Cc2ccc(Cl)cc2)[C@H](O)CNC2CCCCC2)cc(N2CCCCS2(=O)=O)c1
unit-info: %
result: 99
--
compound: Cc1cccc2[nH]c(-c3ccc(-c4ccc(CNCc5ccc(CN)cc5)cc4)s3)nc12
unit-info: %
result: 85
--
compound: O=C(NC1CCCCCC1)C1CCCN(C(=O)c2ccc(O)c(-c3ccc(Cl)c(Cl)c3)c2)C1 (centres undefined)
unit-info: %
result: 21
--
compound: Cc1cc(Nc2ccc(C)c(Cl)c2)n2ncnc2n1
unit-info: %
result: 91
--
compound: CCN(CC)CCCC(C)Nc1ccnc2ccc(-c3ccccc3)cc12 (centres undefined)
unit-info: %
result: 21

====

# assay-overview: antimalarial activity against Dd2 strain (AID 2302);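 note: 0% = DMSO untreated growth and 100% = chloroquine plus artemisinin killed control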
# test-settings: P. falciparum Dd2 in RBCs, LDH growth readout, 72 h; at 2 µM; stronger effect = higher value
Listing: growth inhibition of selected compounds
readout-label: growth inhibition (%)

compound: CCCCC(NCC)c1ccc(OCCOc2ccc(C(CCCC)NCC)cc2)cc1 (stereo not given)
readout-label: growth inhibition
result: 99
//
compound: Oc1c(C(Nc2ccccn2)c2ccc(Cl)cc2Cl)ccc2cccnc12 (stereo not given)
readout-label: growth inhibition
result: 60
//
compound: S=C(NCCN1CCOCC1)Nc1ccccc1
readout-label: growth inhibition
result: 1
//
compound: COc1ccc2ncc(F)c(CCN3C[C@H](CNCc4ccc5oc(=O)ccc5c4)[C@H](O)C3)c2n1
readout-label: growth inhibition
result: 6
//
compound: O=C(Nc1cccc(-c2ccc(-c3nc4ccc(F)cc4[nH]3)cc2)c1)c1ccoc1
readout-label: growth inhibition
result: 6
//
compound: Cc1ccccc1C1CCN(C2CCC(NC(=O)c3cc4cc(C(C)C)ccc4[nH]3)CC2)CC1 (stereo not given)
readout-label: growth inhibition
result: 100
//
compound: Cc1ccccc1C1CCN(C2CCC(NC(=O)c3ccc(-c4ccccc4F)o3)CC2)CC1 (stereo not given)
readout-label: growth inhibition
result: 66
//
compound: NS(=O)(=O)c1cccc(-c2ccc3c(=O)[nH]cnc3c2)c1
readout-label: growth inhibition
result: 100
//
compound: O=C(Nc1cccc(C(F)(F)F)c1)Nc1ccc(F)c([N+](=O)[O-])c1
readout-label: growth inhibition
result: 100
//
compound: NC1CCN(Cc2ccc(-c3ccc(-c4nc5ccc(F)cc5[nH]4)cc3)cc2)C1 (stereo not given)
readout-label: growth inhibition
result: 99
